target: T1, rat serum albumin (rat, UniProt P02770 25-608); experiment: SPR, albumin immobilized, Adnectin 250 nM
T1 construct: also called Rat SA; RSA
T1 sequence (P02770 25-608 limits assumed): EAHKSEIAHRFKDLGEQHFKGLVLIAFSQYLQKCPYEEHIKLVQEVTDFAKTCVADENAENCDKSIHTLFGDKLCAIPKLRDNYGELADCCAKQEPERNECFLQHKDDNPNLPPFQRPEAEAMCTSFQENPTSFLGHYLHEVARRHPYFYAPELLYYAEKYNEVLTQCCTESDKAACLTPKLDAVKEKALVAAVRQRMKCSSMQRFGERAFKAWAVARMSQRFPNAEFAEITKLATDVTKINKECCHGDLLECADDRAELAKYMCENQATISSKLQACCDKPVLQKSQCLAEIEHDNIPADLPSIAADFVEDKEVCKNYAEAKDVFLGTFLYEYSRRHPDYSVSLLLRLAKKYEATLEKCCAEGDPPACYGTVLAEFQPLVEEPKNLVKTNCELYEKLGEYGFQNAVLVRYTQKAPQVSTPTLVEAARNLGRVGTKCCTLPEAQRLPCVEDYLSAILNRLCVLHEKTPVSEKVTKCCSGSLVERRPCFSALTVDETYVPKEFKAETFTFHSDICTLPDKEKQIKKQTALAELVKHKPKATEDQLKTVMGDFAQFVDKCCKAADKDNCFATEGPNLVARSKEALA
Quantity Measured: koff (s⁻¹)
Answer in s⁻¹, number only, no unit symbol.

Examples with answers:
5963_A02.PS5-2 (designed binder) MGCSTSGVSDVPRDLEVVAATPTSLLISWDAPAVTVRYYRITYGREVQKYSDLGPLYIYQEFTVPGSKSTATISGLKPGVDYTITVYAVTGSGESPASSKPISINYRTPHHHHHH ... 0.000902
5963_F03.PS5-2 (designed binder) MGVSDVPRDLEVVAATPTSLLISWDAPCVTVRYYRITYGREVQKYSDLGPLYIYQEFTVPGSKSTATISGLKPGVDYTITVYAVTGSGESPASSKPISINYRTPHHHHHH ... 0.000825
5916_A04.PS5-2 (designed binder) MGVSDVPRDLEVVAATPTSLLISWDAPAVTVRYYRITYGREVQKYSDLGPLYIYQEFTVPGSKSTATISGLKPGVDYTITVYAVTGSGESPASSKPISINYRTPEDEDGCHHHHHH ... 0.000547

Turning now to a further binder:
Noted for 5963_E01.PS5-2 (designed binder) MGVSDVPRDLEVVAATPTSLLISWDAPAVTVRYYRITYGREVQKYSDLGPLYIYQEFTVPGSKSTACISGLKPGVDYTITVYAVTGSGESPASSKPISINYRTPHHHHHH : its koff reads 0.000848
